target: GST-tagged Rac1F37W (Q61L) (UniProt P63000 1-192, F37W | Q61L); assay: BLI

| BINDER | Kd (nM) |
| --- | --- |
| 6xHis-tagged RBD_(ROCK1) (domain or fragment) KDHTVSRLEEANSMLTKDIEILRRENEELTEKMKKAEEEYKLEKEEEISNLKAAFEKNINTERTLKTQAVNKLAEIMNRKDF | 179 |
